Test system: OVCAR-3
Assay protocol: NCI tumour cell line growth inhibition, 48 h
Calls of active or inactive are those of the source. Rule as the data show it: active = GI50 up to about 1.1 µM and inactive = higher.
Here, each record is paired with measured GI50 data.

Example results:
>>> result("CC1=C(C(=O)NCc2ccccc2)C(c2ccccc2C)C(C(=O)NCc2ccccc2)=C(C)N1")
"23.5 µM (inactive)"
>>> result("CC(C)=CCC[C@@H](C)/C=C/C=C(\\C)C(=O)CC[C@@H]1CC[N@+]2(C)CCCC[C@H]12")
"32.9 µM (inactive)"
>>> result("COc1cc2nc(-c3ccccc3)cc(O)c2c(OC)c1OC")
"> 100 µM (inactive)"
>>> result("[O-][n+]1cc(SCc2ccccc2)ncc1SCc1ccccc1")
"> 10 µM (inactive)"
>>> result("Nc1n[nH]c(CCCCCCCc2nnc(N)[nH]2)n1")
"> 100 µM (inactive)"

# evaluate next
// recorded GI50 for COc1ccc(/C=C2\CCC(C)(CN(C)C)C2=O)cc1Br (stereo unspecified) : 18.2 µM (inactive)

###

Here, each record is paired with measured GI50 data.
Test system: IGROV-1
Assay protocol: NCI tumour cell line growth inhibition, 48 h
Active and inactive are the calls of the source. Rule as the data show it: active = GI50 up to about 1.1 µM and inactive = higher.

Example results:
>>> result("C/C(=N\\O)C1CC(CC(=O)O)C1(C)C (stereo unspecified)")
"> 100 µM (inactive)"
>>> result("COC(=O)C1Cc2c([nH]c3ccccc23)-c2[nH]c3ccccc3c2CC(NC(C)=O)C(=O)N2CCCC2C(=O)N1 (stereo unspecified)")
"24.8 µM (inactive)"
>>> result("NC(=O)CC(N)c1nnn[nH]1 (stereo unspecified)")
"> 100 µM (inactive)"
>>> result("CCOP(=O)(/C=C\\n1ccc(=O)[nH]c1=O)OCC")
"> 100 µM (inactive)"
>>> result("COc1ccc(N[S+]([O-])c2ccc(-c3ccccc3)cc2)cc1 (stereo unspecified)")
"8.55 µM (inactive)"
>>> result("CC(C)c1ccc2c(c1)CCC1C(C)(C)[C@@H](O)CC[C@]21C (stereo partly specified)")
"> 100 µM (inactive)"

// recorded GI50 for C[C@]12Cc3cnc(-c4ccccc4)nc3C[C@@H]1CC[C@@H]1[C@@H]2CC[C@@]2(C)[C@H]1CC[C@]2(C)O : 19.7 µM (inactive)

// recorded GI50 for CCc1nc2ccc(NCCN(C)C)c3c(=O)c4ccccc4n1c23 : 0.265 µM (active)

// recorded GI50 for NC(=O)n1ncc(Cl)c(Cl)c1=O : > 100 µM (inactive)

// recorded GI50 for O=c1c2cccc3cccc(c4n1CCCN=4)c32 : > 100 µM (inactive)

// recorded GI50 for O=C1C2C=CC1C1C(=O)OC(=O)C21 (stereo unspecified) : > 100 µM (inactive)

###

Tested on: OVCAR-3
Assay protocol: NCI tumour cell line growth inhibition, 48 h
Activity calls are given as the source filed them. No stated cut-off is given here; in the data, active = GI50 up to about 1.1 µM and inactive = higher.
Value kind: GI50

Example results:
>>> result("O=S(=O)(O)c1ccc2cccc(/N=N\\c3c(O)ccc4ccccc34)c2c1")
"> 100 µM (inactive)"
>>> result("CCc1ccc(Nc2cc(=O)[nH]c(=S)n2C)cc1")
"> 100 µM (inactive)"
>>> result("COc1cc2nc(-c3cccs3)nc(Cl)c2cc1OC")
"93.3 µM (inactive)"
>>> result("Nc1ccc2c(c1)Oc1c(F)c(F)cc3c(=O)c(C(=O)O)cn-2c13")
"22.1 µM (inactive)"
>>> result("O=c1c2ccccc2n2c(S)nnc2n1-c1ccccc1")
"> 100 µM (inactive)"

# evaluate next
// recorded GI50 for COc1ccc(N[S+]([O-])c2ccc(-c3ccccc3)cc2)cc1 (stereo unspecified) : > 100 µM (inactive)
